Each entry below carries its recorded pKd.
# testedTarget: DLG1_2, Q12959
# Sequence (Q12959 314-412): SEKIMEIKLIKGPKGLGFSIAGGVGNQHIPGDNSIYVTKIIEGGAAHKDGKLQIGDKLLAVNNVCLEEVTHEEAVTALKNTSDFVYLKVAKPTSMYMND
# assayExplanation: holdup assay
# Design: key: below the threshold = too weak to quantify, mostly under pKd 3.1 to 4
# conditionSet: plain residues with an end cap or a label only (N-terminal biotin on a linker: ado-ado)

# binder, pKd
rows = [
    ("PGKKPEDSRV [SLCO2B1, O94956]", 3.78),
    ("QKASRNESTF [POLR1D, P0DPB6]", 3.64),
    ("PLATCDETSI [SEMA4F, O95754]", 3.92),
    ("TKDKVQETQI [LRRC4, Q9HBW1]", 5.03),
    ("PLPPEEESWV [GAS2L2, Q8NHY3]", 4.67),
    ("IQISELETNV [SLC1A7, O00341]", 4.91),
    ("ATKDKKITTV [EXOC4, Q96A65]", 5.91),
    ("TKEIPNCTSV [SORCS3, Q9UPU3]", 4.43),
    ("VKQYADVEGF [HNRNPK, P61978]", 3.72),
    ("GDSSRKEYFI [GYPC, P04921]", 3.95),
    ("KIEDVEITLV [FCHSD2, O94868]", 4.3),
    ("NKSEPFLTWL [WWTR1, Q9GZV5]", 3.59),
    ("GTMFLRETSL [GUCY1A2, P33402]", 4.81),
    ("NISARRFTLC [FAM167B, Q9BTA0]", 3.92),
    ("DYSNLRETDI [ADRA1D, P25100]", 4.74),
    ("ADEMICITTL [CACNA1D, Q01668]", 4.06),
    ("PEKVSNTTVV [IGSF5, Q9NSI5]", 4.64),
]
